Procedure summary: in vitro
Study conditions: BALB/c, mouse, normal (non-infected) primary murine peritoneal macrophages, Normal Macrophage Survival Rate
Where a SMILES comes first, the peptide text is derived from it. [ ]: non-standard residue; d: D form. Api = NC1(C(=O)O)CCNCC1; Aib = CC(C)(N)C(=O)O
Metric name: viability at 1 h, 50 µM (%)
Numbers only, in %.

Kindly note the recorded viability at 1 h, 50 µM for CC(C)(N)C(=O)NC(C)(C)C(=O)NC1(C(=O)N[C@@H](CCCCN)C(=O)NC(C)(C)C(=O)NC(C)(C)C(=O)NC2(C(=O)N[C@@H](CCCCN)C(=O)NC(C)(C)C(=O)NC(C)(C)C(N)=O)CCNCC2)CCNCC1 [Pi-10, H—AibAibApiLysAibAibApiLysAibAib—NH2] (H-[Aib][Aib][Api]K[Aib][Aib][Api]K[Aib][Aib]-NH2) , which is 68

###

Procedure summary: in vitro
Study conditions: BALB/c, mouse, normal (non-infected) primary murine peritoneal macrophages, Normal Macrophage Survival Rate
Where a SMILES comes first, the peptide text is derived from it. [ ]: non-standard residue; d: D form. Api = NC1(C(=O)O)CCNCC1; Aib = CC(C)(N)C(=O)O
Record form. Attribute: viability at 1 h, 1 µM. Fill in for each entry.
One number for each entry, in %.

CC(=O)NC(C)(C)C(=O)NC(C)(C)C(=O)NC1(C(=O)N[C@@H](CCCCN)C(=O)NC(C)(C)C(=O)NC(C)(C)C(=O)NC2(C(=O)N[C@@H](CCCCN)C(=O)NC(C)(C)C(=O)NC(C)(C)C(N)=O)CCNCC2)CCNCC1 [Pi-10-ac, Ac—AibAibApiLysAibAibApiLysAibAib—NH2] (Ac-[Aib][Aib][Api]K[Aib][Aib][Api]K[Aib][Aib]-NH2)
89
CC(C)(NC(=O)C(C)(C)NC(=O)[C@H](CCCCN)NC(=O)[C@H](CCCCN)NC(=O)C(C)(C)NC(=O)C(C)(C)NC(=O)[C@H](CCCCN)NC(=O)C(C)(C)NC(=O)C(C)(C)NC(=O)[C@H](CCCCN)NC(=O)[C@H](CCCCN)NC(=O)C(C)(C)NC(=O)C(C)(C)NC(=O)[C@@H](N)CCCCN)C(N)=O [Ai-14] (H-K[Aib][Aib]KK[Aib][Aib]K[Aib][Aib]KK[Aib][Aib]-NH2)
88

Could you tell me viability at 1 h, 1 µM for each of these molecules? They are listed below.
1. CC(=O)N[C@@H](CCCCN)C(=O)N[C@@H](CCCCN)C(=O)NC(C)(C)C(=O)NC(C)(C)C(=O)N[C@@H](CCCCN)C(=O)NC(C)(C)C(=O)NC(C)(C)C(=O)N[C@@H](CCCCN)C(=O)N[C@@H](CCCCN)C(=O)NC(C)(C)C(=O)NC(C)(C)C(N)=O [Ai-11-ac, Ac—LysLysAibAibLysAibAibLysLysAibAib—NH2] (Ac-KK[Aib][Aib]K[Aib][Aib]KK[Aib][Aib]-NH2)
2. CC(C)(N)C(=O)NC(C)(C)C(=O)NC1(C(=O)N[C@@H](CCCCN)C(=O)NC(C)(C)C(=O)NC(C)(C)C(=O)NC2(C(=O)N[C@@H](CCCCN)C(=O)NC(C)(C)C(=O)NC(C)(C)C(N)=O)CCNCC2)CCNCC1 [Pi-10, H—AibAibApiLysAibAibApiLysAibAib—NH2] (H-[Aib][Aib][Api]K[Aib][Aib][Api]K[Aib][Aib]-NH2)
3. CC(C)(NC(=O)C(C)(C)NC(=O)[C@H](CCCCN)NC(=O)[C@H](CCCCN)NC(=O)C(C)(C)NC(=O)C(C)(C)NC(=O)[C@H](CCCCN)NC(=O)C(C)(C)NC(=O)C(C)(C)NC(=O)[C@H](CCCCN)NC(=O)[C@@H](N)CCCCN)C(N)=O [Ai-11, H—LysLysAibAibLysAibAibLysLysAibAib—NH2] (H-KK[Aib][Aib]K[Aib][Aib]KK[Aib][Aib]-NH2)

[out]
[82, 89, 89]

###

Test system: Staphylococcus aureus, ATCC 25723
Study conditions: MIC after 4 h; median of 3-7 tests; corrected for actual peptide concentration
Where a SMILES comes first, the peptide text is derived from it. [ ]: non-standard residue; d: D form. Ac6c = NC1(C(=O)O)CCCCC1; Aib = CC(C)(N)C(=O)O
Metric name: Peptide minimum inhibitory concentration, S. aureus

Consider the following illustrative entries.
CC(C)(NC(=O)C(C)(C)NC(=O)[C@H](CCCCN)NC(=O)[C@H](CCCCN)NC(=O)C(C)(C)NC(=O)C(C)(C)NC(=O)[C@H](CCCCN)NC(=O)C(C)(C)NC(=O)C(C)(C)NC(=O)[C@H](CCCCN)NC(=O)[C@H](CCCCN)NC(=O)C(C)(C)NC(=O)C(C)(C)NC(=O)[C@@H](N)CCCCN)C(N)=O [Ai-14] (H-K[Aib][Aib]KK[Aib][Aib]K[Aib][Aib]KK[Aib][Aib]-NH2)
11 µM
CC(C)(NC(=O)C(C)(C)NC(=O)[C@H](CCCCN)NC(=O)[C@H](CCCCN)NC(=O)C(C)(C)NC(=O)C(C)(C)NC(=O)[C@H](CCCCN)NC(=O)C(C)(C)NC(=O)C(C)(C)NC(=O)[C@H](CCCCN)NC(=O)[C@@H](N)CCCCN)C(N)=O [Ai-11, H—LysLysAibAibLysAibAibLysLysAibAib—NH2] (H-KK[Aib][Aib]K[Aib][Aib]KK[Aib][Aib]-NH2)
>220 µM

Tested on Staphylococcus aureus, ATCC 25723: NCCCC[C@H](NC(=O)[C@H](CCCCN)NC(=O)C1(NC(=O)C2(NC(=O)[C@H](CCCCN)NC(=O)C3(NC(=O)C4(NC(=O)[C@H](CCCCN)NC(=O)[C@H](CCCCN)NC(=O)C5(NC(=O)C6(NC(=O)[C@@H](N)CCCCN)CCCCC6)CCCCC5)CCCCC4)CCCCC3)CCCCC2)CCCCC1)C(=O)NC1(C(N)=O)CCCCC1 [Ch-13, H—LysChChLysLysChChLysChChLysLysCh—NH2] (H-K[Ac6c][Ac6c]KK[Ac6c][Ac6c]K[Ac6c][Ac6c]KK[Ac6c]-NH2) . Observed Peptide minimum inhibitory concentration, S. aureus: 2.2 µM

###

Procedure summary: in vitro
Study conditions: BALB/c, mouse, normal (non-infected) primary murine peritoneal macrophages, Normal Macrophage Survival Rate
Where a SMILES comes first, the peptide text is derived from it. [ ]: non-standard residue; d: D form. Api = NC1(C(=O)O)CCNCC1; Aib = CC(C)(N)C(=O)O
Metric name: viability at 1 h, 10 µM

Could you tell me viability at 1 h, 10 µM for each of these molecules? They are listed below.
1. CC(C)(N)C(=O)NC(C)(C)C(=O)NC1(C(=O)N[C@@H](CCCCN)C(=O)NC(C)(C)C(=O)NC(C)(C)C(=O)NC2(C(=O)N[C@@H](CCCCN)C(=O)NC(C)(C)C(=O)NC(C)(C)C(N)=O)CCNCC2)CCNCC1 [Pi-10, H—AibAibApiLysAibAibApiLysAibAib—NH2] (H-[Aib][Aib][Api]K[Aib][Aib][Api]K[Aib][Aib]-NH2)
2. CC(=O)N[C@@H](CCCCN)C(=O)N[C@@H](CCCCN)C(=O)NC(C)(C)C(=O)NC(C)(C)C(=O)N[C@@H](CCCCN)C(=O)NC(C)(C)C(=O)NC(C)(C)C(=O)N[C@@H](CCCCN)C(=O)N[C@@H](CCCCN)C(=O)NC(C)(C)C(=O)NC(C)(C)C(N)=O [Ai-11-ac, Ac—LysLysAibAibLysAibAibLysLysAibAib—NH2] (Ac-KK[Aib][Aib]K[Aib][Aib]KK[Aib][Aib]-NH2)
3. CC(C)(NC(=O)C(C)(C)NC(=O)[C@H](CCCCN)NC(=O)[C@H](CCCCN)NC(=O)C(C)(C)NC(=O)C(C)(C)NC(=O)[C@H](CCCCN)NC(=O)C(C)(C)NC(=O)C(C)(C)NC(=O)[C@H](CCCCN)NC(=O)[C@@H](N)CCCCN)C(N)=O [Ai-11, H—LysLysAibAibLysAibAibLysLysAibAib—NH2] (H-KK[Aib][Aib]K[Aib][Aib]KK[Aib][Aib]-NH2)
4. CC(=O)NC(C)(C)C(=O)NC(C)(C)C(=O)NC1(C(=O)N[C@@H](CCCCN)C(=O)NC(C)(C)C(=O)NC(C)(C)C(=O)NC2(C(=O)N[C@@H](CCCCN)C(=O)NC(C)(C)C(=O)NC(C)(C)C(N)=O)CCNCC2)CCNCC1 [Pi-10-ac, Ac—AibAibApiLysAibAibApiLysAibAib—NH2] (Ac-[Aib][Aib][Api]K[Aib][Aib][Api]K[Aib][Aib]-NH2)
5. CC(C)(NC(=O)C(C)(C)NC(=O)[C@H](CCCCN)NC(=O)[C@H](CCCCN)NC(=O)C(C)(C)NC(=O)C(C)(C)NC(=O)[C@H](CCCCN)NC(=O)C(C)(C)NC(=O)C(C)(C)NC(=O)[C@H](CCCCN)NC(=O)[C@H](CCCCN)NC(=O)C(C)(C)NC(=O)C(C)(C)NC(=O)[C@@H](N)CCCCN)C(N)=O [Ai-14] (H-K[Aib][Aib]KK[Aib][Aib]K[Aib][Aib]KK[Aib][Aib]-NH2)

[out]
1: 90%; 2: 86%; 3: 81%; 4: 88%; 5: 88%

Origin of the recorded values: patent US6566334B1
